Tested on: Staphylococcus epidermidis 835
Test: MIC, broth microdilution, SE 835
Type: cell-based
Settings: Staphylococcus epidermidis, 835; Table 2; in the presence of 0.002% Polysorbate 80; class symbols; read-out: MIC SE 835
Endpoint: MIC

Molecule	System under test	MIC
CN[C@H](CC(C)C)C(=O)N[C@H]1C(=O)N[C@@H](CC(=O)NC(=O)c2ccc(OCCCN)c(OCCCN)c2)C(=O)N[C@H]2C(=O)N[C@H]3C(=O)N[C@H](C(=O)N[C@H](C(=O)NC4C5CC6CC(C5)CC4C6)c4cc(O)cc(O)c4-c4cc3ccc4O)[C@H](O)c3ccc(c(Cl)c3)Oc3cc2cc(c3O[C@@H]2O[C@H](CO)[C@@H](O)[C@H](O)[C@H]2O)Oc2ccc(cc2Cl)[C@H]1O (stereo partly drawn) [Compound 163]	Staphylococcus epidermidis 835	1 to 2 mg/L
CN[C@H](CC(C)C)C(=O)N[C@H]1C(=O)N[C@@H](CC(=O)NC(=O)c2ccc(OCCN)c(OCCN)c2)C(=O)N[C@H]2C(=O)N[C@H]3C(=O)N[C@H](C(=O)N[C@H](C(=O)NC4C5CC6CC(C5)CC4C6)c4cc(O)cc(O)c4-c4cc3ccc4O)[C@H](O)c3ccc(c(Cl)c3)Oc3cc2cc(c3O[C@@H]2O[C@H](CO)[C@@H](O)[C@H](O)[C@H]2O[C@H]2C[C@](C)(N)[C@H](O)[C@H](C)O2)Oc2ccc(cc2Cl)[C@H]1O (stereo partly drawn) [Compound 165]	Staphylococcus epidermidis 835	0.5 to 1 mg/L
CCCCCCC(C)C(=O)NC(=O)C[C@@H]1NC(=O)[C@H](NC(=O)[C@@H](CC(C)C)NC)[C@H](O)c2ccc(c(Cl)c2)Oc2cc3cc(c2O[C@@H]2O[C@H](CO)[C@@H](O)[C@H](O)[C@H]2O[C@H]2C[C@](C)(N)[C@H](O)[C@H](C)O2)Oc2ccc(cc2Cl)[C@@H](O)[C@@H]2NC(=O)[C@H](NC(=O)[C@@H]3NC1=O)c1ccc(O)c(c1)-c1c(O)cc(O)cc1[C@@H](C(=O)NC1C3CC4CC(C3)CC1C4)NC2=O (stereo partly drawn) [Compound 46]	Staphylococcus epidermidis 835	0.01 to 0.5 mg/L
CNCCOc1ccc(C(=O)NC(=O)C[C@@H]2NC(=O)[C@H](NC(=O)[C@@H](CC(C)C)NC)[C@H](O)c3ccc(c(Cl)c3)Oc3cc4cc(c3O[C@@H]3O[C@H](CO)[C@@H](O)[C@H](O)[C@H]3O)Oc3ccc(cc3Cl)[C@@H](O)[C@@H]3NC(=O)[C@H](NC(=O)[C@@H]4NC2=O)c2ccc(O)c(c2)-c2c(O)cc(O)cc2[C@@H](C(=O)NC2C4CC5CC(C4)CC2C5)NC3=O)cc1OCCNC (stereo partly drawn) [Compound 160]	Staphylococcus epidermidis 835	0.5 to 1 mg/L
CNCCOc1ccc(C(=O)NC(=O)C[C@@H]2NC(=O)[C@H](NC(=O)[C@@H](CC(C)C)NC)[C@H](O)c3ccc(c(Cl)c3)Oc3cc4cc(c3O[C@@H]3O[C@H](CO)[C@@H](O)[C@H](O)[C@H]3O[C@H]3C[C@](C)(N)[C@H](O)[C@H](C)O3)Oc3ccc(cc3Cl)[C@@H](O)[C@@H]3NC(=O)[C@H](NC(=O)[C@@H]4NC2=O)c2ccc(O)c(c2)-c2c(O)cc(O)cc2[C@@H](C(=O)NC2C4CC5CC(C4)CC2C5)NC3=O)cc1OCCNC (stereo partly drawn) [Compound 152]	Staphylococcus epidermidis 835	0.01 to 0.5 mg/L

Query :: What value of measured MIC is listed for CCNCCOCc1cc(OCCNCC)cc(C(=O)NC(=O)C[C@@H]2NC(=O)[C@H](NC(=O)[C@@H](CC(C)C)NC)[C@H](O)c3ccc(c(Cl)c3)Oc3cc4cc(c3O[C@@H]3O[C@H](CO)[C@@H](O)[C@H](O)[C@H]3O[C@H]3C[C@](C)(N)[C@H](O)[C@H](C)O3)Oc3ccc(cc3Cl)[C@@H](O)[C@@H]3NC(=O)[C@H](NC(=O)[C@@H]4NC2=O)c2ccc(O)c(c2)-c2c(O)cc(O)cc2[C@@H](C(=O)NC2C4CC5CC(C4)CC2C5)NC3=O)c1 (stereo partly drawn) [Compound 164] ?
Result :: 0.01 to 0.5 mg/L

Query :: Note, next up: CNCCOc1cc(C(=O)NC(=O)C[C@@H]2NC(=O)[C@H](NC(=O)[C@@H](CC(C)C)NC)[C@H](O)c3ccc(c(Cl)c3)Oc3cc4cc(c3O[C@@H]3O[C@H](CO)[C@@H](O)[C@H](O)[C@H]3O)Oc3ccc(cc3Cl)[C@@H](O)[C@@H]3NC(=O)[C@H](NC(=O)[C@@H]4NC2=O)c2ccc(O)c(c2)-c2c(O)cc(O)cc2[C@@H](C(=O)NC2C4CC5CC(C4)CC2C5)NC3=O)cc(OCCNC)c1OCCNC (stereo partly drawn) [Compound 162]
Result :: 0.5 to 1 mg/L

Query :: // query: CNCCOCc1cc(OCCNC)cc(C(=O)NC(=O)C[C@@H]2NC(=O)[C@H](NC(=O)[C@@H](CC(C)C)NC)[C@H](O)c3ccc(c(Cl)c3)Oc3cc4cc(c3O[C@@H]3O[C@H](CO)[C@@H](O)[C@H](O)[C@H]3O[C@H]3C[C@](C)(N)[C@H](O)[C@H](C)O3)Oc3ccc(cc3Cl)[C@@H](O)[C@@H]3NC(=O)[C@H](NC(=O)[C@@H]4NC2=O)c2ccc(O)c(c2)-c2c(O)cc(O)cc2[C@@H](C(=O)NC2C4CC5CC(C4)CC2C5)NC3=O)c1 (stereo partly drawn) [Compound 153]
Result :: 0.01 to 0.5 mg/L

Query :: Another: CCOc1ccc(C(=O)NC(=O)C[C@@H]2NC(=O)[C@H](NC(=O)[C@@H](CC(C)C)NC)[C@H](O)c3ccc(c(Cl)c3)Oc3cc4cc(c3O[C@@H]3O[C@H](CO)[C@@H](O)[C@H](O)[C@H]3O[C@H]3C[C@](C)(N)[C@H](O)[C@H](C)O3)Oc3ccc(cc3Cl)[C@@H](O)[C@@H]3NC(=O)[C@H](NC(=O)[C@@H]4NC2=O)c2ccc(O)c(c2)-c2c(O)cc(O)cc2[C@@H](C(=O)NC2C4CC5CC(C4)CC2C5)NC3=O)cc1 (stereo partly drawn) [Compound 63]
Result :: 0.01 to 0.5 mg/L
